molecular target: Recombinant human SHP2 full-length protein (Homo sapiens); construct: Recombinant human SHP2 full-length protein; experiment: SHP2 activity inhibition measurement (fluorescence detection, surrogate substrate DiFMUP); conditions: recombinant human SHP2 full-length protein activated with diphosphopeptide
Structures can show the parent of a compound that is named as a salt.
measure.name: IC50 (nM)

Guide cases for IC50, answers given:
>>> value_reported("[2H]C([2H])([2H])n1c(N2CCC3(CC2)CO[C@@H](C)[C@H]3N)ncc(Sc2ccc3nn(C)cc3c2Cl)c1=O")
11
>>> value_reported("C[C@@H]1OCC2(CCN(c3nc(N)c(Sc4ccc5nn(C)cc5c4Cl)c(=O)n3C)CC2)[C@@H]1N [Compound 14, formate]")
2.5
>>> value_reported("Cn1c(N2CCC3(CCC[C@H]3N)CC2)ncc(Sc2ccnc3c2ccn3C)c1=O [Compound 2, formate]")
20

I: Cn1c(N2CCC3(CCC[C@H]3N)CC2)ncc(Sc2cccc3[nH]ncc23)c1=O [Compound 3, hydrochloride]
II: C[C@@H]1OCC2(CCN(c3ncc(Sc4ccnc5c4ccn5C)c(=O)n3C)CC2)[C@@H]1N [Compound 17, formate]
III: Cn1c(N2CCC3(CCC[C@H]3N)CC2)ncc(Sc2ccn3nccc3c2)c1=O [Compound 5, hydrochloride]
IV: Cn1cc2c(Cl)c(Sc3cnc(N4CCC5(CC4)COC[C@H]5N)n(C)c3=O)ccc2n1
## Task Arrange the 4 entries by IC50 so the values rise. Thanks in advance for listing the labels in the requested order.
## Result II, I, IV, III
(II: 14 nM, I: 20 nM, IV: 36 nM, III: 801 nM)

---

Each entry below carries its reported IC50.
target: Recombinant human SHP2 full-length protein (Homo sapiens, UniProt Q06124); construct: Recombinant human SHP2 full-length protein; assay: SHP2 activity inhibition measurement (fluorescence detection, surrogate substrate DiFMUP); details: recombinant human SHP2 full-length protein activated with diphosphopeptide
Counter-ions that a name gives are not always drawn.
Dear colleague, please return just the value in nM, with no unit written.

Guide cases for IC50, answers given:
>>> value_reported("Cn1cc2c(Cl)c(Sc3cnc(N4CCC5(CCC[C@H]5N)CC4)n(C)c3=O)ccc2n1 [Compound 7, hydrochloride]")
12
>>> value_reported("C[C@@H]1OCC2(CCN(c3nc(N)c(Sc4ccn5nccc5c4Cl)c(=O)n3C)CC2)[C@@H]1N [Compound 15, formate]")
2.7
>>> value_reported("Cn1nc2ccc(Sc3cnc(N4CCC5(CCC[C@H]5N)CC4)n(C)c3=O)c(Cl)c2c1C#N [Compound 9, formate]")
8.8

## Task Quick one: give measured IC50 for Cn1c(N2CCC3(CCC[C@H]3N)CC2)ncc(Sc2cccn3nccc23)c1=O [Compound 4, formate]
## Result 126

## Task Quick one: give measured IC50 for Cn1c(N2CCC3(CCC[C@H]3N)CC2)ncc(Sc2ccn3nccc3c2Cl)c1=O [Compound 8, formate]
## Result 8.6
